This listing pairs substances with measured ncRNA array expression, patient 2.
test system: ncRNAs (SEQ ID NO 28-89); assay: ncRNA arrays of melanocytes, keratinocytes, normal skin, melanoma cell lines and patient samples; set-up: species or system human; conditions: melanoma patient 2 sample compared to normal skin

SUBSTANCE | ncRNA array expression, patient 2
SEQ ID NO 64 (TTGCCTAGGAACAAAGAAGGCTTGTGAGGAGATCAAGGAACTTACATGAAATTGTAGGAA; listed as DNA, chemistry not given here; listed as Homo sapiens) | 2.496
SEQ ID NO 61 (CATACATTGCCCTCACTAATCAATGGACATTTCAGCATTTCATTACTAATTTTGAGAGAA; listed as DNA, chemistry not given here; listed as Homo sapiens) | 1.244
SEQ ID NO 71 (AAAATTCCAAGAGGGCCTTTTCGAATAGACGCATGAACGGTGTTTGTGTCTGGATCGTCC; listed as DNA, chemistry not given here; listed as Homo sapiens) | 0.7413
SEQ ID NO 39 (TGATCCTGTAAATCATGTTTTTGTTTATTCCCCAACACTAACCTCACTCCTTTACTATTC; listed as DNA, chemistry not given here; listed as Homo sapiens) | −1.04
SEQ ID NO 51 (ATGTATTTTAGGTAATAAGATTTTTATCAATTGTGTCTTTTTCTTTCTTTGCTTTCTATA; listed as DNA, chemistry not given here; listed as Homo sapiens) | 0.8922
